Recorded values, source patent US20130316910A1.

- Target under test: T1, Bcl-2 protein having His tag on the C terminal side (UniProt P10415 1-211, limits assumed)
- T1 construct: Immobilised through its His tag on a Ni-loaded SPR substrate; not shown: C-terminal His tag
- T1 sequence (P10415 1-211 limits assumed): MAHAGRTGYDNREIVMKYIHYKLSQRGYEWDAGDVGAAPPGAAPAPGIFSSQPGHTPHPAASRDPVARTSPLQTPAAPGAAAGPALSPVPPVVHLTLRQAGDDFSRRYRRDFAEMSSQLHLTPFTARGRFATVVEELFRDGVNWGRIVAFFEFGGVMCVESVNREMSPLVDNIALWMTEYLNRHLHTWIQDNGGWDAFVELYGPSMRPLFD
- Assay explanation: SPR, His-tagged Bcl-2 immobilised on Ni substrate, peptide in solution
Property measured: Kd (nM)
Express the result in nM but write the number alone.

# count of solved cases: 2
binder="Ac-FPHATIAARADSYDSYVRLVATFR-NH2 [A-2A]" property_measured=Kd result_value=3.6
binder="Ac-FPHATIAARADSYDSYVRLAATFL-NH2 (by the library design Ala stands where the special amino acid and Cys would be) [A-1A]" property_measured=Kd result_value=15

Okay, next one:
Recorded Kd of Ac-FIIARFSALADSYDASRHIF-NH2 [A-5A] , please.
0.58
